Target: MLK1 (GST-MLK1KD) (Homo sapiens)
Construct: 1 μg/mL of baculoviral GST-MLK1KD (Lot 23.1A); GST; made in house
Sequence (P80192 144-412 limits assumed, species assumed): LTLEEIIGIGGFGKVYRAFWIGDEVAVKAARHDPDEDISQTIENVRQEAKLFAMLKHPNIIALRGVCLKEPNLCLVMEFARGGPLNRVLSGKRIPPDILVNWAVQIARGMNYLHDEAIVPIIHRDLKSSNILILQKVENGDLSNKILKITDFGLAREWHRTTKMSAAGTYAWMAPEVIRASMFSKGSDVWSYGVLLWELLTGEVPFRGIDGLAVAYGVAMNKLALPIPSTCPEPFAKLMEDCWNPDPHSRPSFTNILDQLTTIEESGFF
Assay: Mixed Lineage Kinase-1 inhibition assay (32P, myelin basic protein)
Format: biochemical
Details: 1 uM compound; 60 μM ATP; read-out: MLK-1 % inhibition @ 1 uM
RESULT_TYPE: inhibition at 1 µM (%)

Example cases with answers are listed next.
## Task Quick one: inhibition at 1 µM of O=c1[nH]nc(-c2cc3ccccc3o2)c2[nH]c3ccc(OCc4ccccc4)cc3c12 ?
## Result 73

## Task I am curious: what inhibition at 1 µM value has been reported for Cn1c2ccccc2c2c(=O)[nH]nc(-c3ccc4ccccc4c3)c21 [Example 11c] ?
## Result 0

## Task Can you share its inhibition at 1 µM? I mean this compound: O=c1[nH]nc(-c2cnc3ccccc3n2)c2[nH]c3ccccc3c12
## Result 0

[P] O=c1[nH]nc(-c2ccc3ccccc3c2)c2c1[nH]c1ccccc12 [Example 14c]
[Q] O=c1[nH]nc(-c2cc3ccccc3o2)c2[nH]c3cccc(OCc4ccccc4)c3c12
## Task # query: argmin of inhibition at 1 µM over P and Q To answer, give the label that identifies your chosen option.
## Result P
(P: 12%, Q: 44%)

[P] O=c1[nH]nc(-c2ccc(-c3ccccc3)cc2)c2[nH]c3ccccc3c12
[Q] Cn1ccnc1-c1n[nH]c(=O)c2c1[nH]c1ccccc12
[R] O=c1[nH]nc(-c2cc3ccccc3o2)c2[nH]c3cc4c(cc3c12)OCO4
[S] Cn1c(-c2n[nH]c(=O)c3c2[nH]c2ccccc23)nc2ccccc21
## Task # rank_down: sort by inhibition at 1 µM, max first // respond by listing labels in the order requested
## Result R, P, Q, S
(R: 46%, P: 14%, Q: 2%, S: 0%)

Just for reference, patent US7732447B2 is where these values come from.
